# assayed.target: T1, GLP-1R (INS1e assay) (UniProt P32301 22-463, limits assumed)
# T1 sequence (looked up): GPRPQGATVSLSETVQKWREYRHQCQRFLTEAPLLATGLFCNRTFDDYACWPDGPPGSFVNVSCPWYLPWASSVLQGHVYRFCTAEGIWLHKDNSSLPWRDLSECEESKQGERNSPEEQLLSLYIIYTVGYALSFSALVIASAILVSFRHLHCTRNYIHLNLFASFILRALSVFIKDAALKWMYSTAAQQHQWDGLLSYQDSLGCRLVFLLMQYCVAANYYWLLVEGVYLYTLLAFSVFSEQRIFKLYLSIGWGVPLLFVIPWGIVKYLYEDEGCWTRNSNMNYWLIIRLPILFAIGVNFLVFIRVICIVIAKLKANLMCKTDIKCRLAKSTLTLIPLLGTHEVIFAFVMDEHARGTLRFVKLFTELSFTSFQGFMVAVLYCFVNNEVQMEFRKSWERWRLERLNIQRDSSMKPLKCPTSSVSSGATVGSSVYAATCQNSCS
# procedure.text: cell-based or functional assay
Starred links: 1 amine or outer side, 2 acyl side, 3 side chain; linkers in the order of their positions; H or OH if unused. Non-standard residues stand in square brackets, D forms with d. Groups on a side chain read outwards from the residue. Primed or numbered codes have the meaning given here. No end group written: not given here. *: point of attachment. γGlu = O=C(O)[C@H](CCC(=O)[*:2])N[*:1]; Stearoyl = CCCCCCCCCCCCCCCCCC(=O)*; αMeF = C[C@](N)(Cc1ccccc1)C(=O)O; αMeK = C[C@](N)(CCCCN)C(=O)O; αMeS = C[C@](N)(CO)C(=O)O; PEG2′ = not defined here; Aib = CC(C)(N)C(=O)O
observable: INS1e assay EC50 GLP-1 R n2 (pM)
Expressed in pM, but write only the number.

Solved cases (3 shown):
H[Aib]EGS[αMeF]TSDV[αMeS]S[αMeF]LEGEAA[αMeK]E[αMeF]IA[αMeF]K([PEG2′-PEG2′-γGlu-Stearoyl])V[αMeK]GG-NH2 [SEQ ID NO 103] | 590
HXEGTFTSDVSSYLEGQAAKEFIAWLVKGRK (Aib2; K(ε-(PEG)2-(PEG)2-γE-Stearate) after R30; C-terminal amide) [SEQ ID NO 6] | 139
H[Aib]EGS[αMeF]TSDV[αMeS]S[αMeF]LEGEAAK([PEG2′-PEG2′-PEG2′-Stearoyl])E[αMeF]IAWVV[αMeK]GG-NH2 [SEQ ID NO 55] | 10.1

response.value for H[Aib]EGS[αMeF]TSDV[αMeS]S[αMeF]LEGEAA[αMeK]E[αMeF]IK([PEG2′-PEG2′-γGlu-Stearoyl])[αMeF]VV[αMeK]GG-NH2 [SEQ ID NO 105] (field: INS1e assay EC50 GLP-1 R n2) = 1720

Record H[Aib]EGS[αMeF]TSDV[αMeS]S[αMeF]LEGEAAK([PEG2′-PEG2′-PEG2′-Stearoyl])EFIA[αMeF]VV[αMeK]GG-NH2 [SEQ ID NO 54] , field INS1e assay EC50 GLP-1 R n2: 8.37

Entry under test: H[Aib]EGS[αMeF]TSDV[αMeS]S[αMeF]LEGEAK([PEG2′-PEG2′-γGlu-Stearoyl])[αMeK]E[αMeF]IA[αMeF]VV[αMeK]GG-NH2 [SEQ ID NO 110] . Its INS1e assay EC50 GLP-1 R n2 was 23100

response.value for H[Aib]EGS[αMeF]TSDVSK([PEG2′-PEG2′-γGlu-Stearoyl])YLEGEAA[αMeK]E[αMeF]IA[αMeF]VVEGG-NH2 [SEQ ID NO 60] (field: INS1e assay EC50 GLP-1 R n2) = 12100

Looking up H[Aib]EGS[αMeF]TSDV[αMeS]S[αMeF]LEGEAA[αMeK]E[αMeF]IA[αMeF]VVK([PEG2′-PEG2′-PEG2′-Stearoyl])GG-NH2 [SEQ ID NO 190] , I see its INS1e assay EC50 GLP-1 R n2 listed as 48.5

So for H[Aib]EGS[αMeF]TSDV[αMeS]S[αMeF]LEGEAAK([PEG2′-PEG2′-γGlu-Stearoyl])E[αMeF]IAWVV[αMeK]GG-NH2 [SEQ ID NO 49] , the logged INS1e assay EC50 GLP-1 R n2 turned out to be 10700

Record H[Aib]EGS[αMeF]TSDVSK([PEG2′-PEG2′-PEG2′-Stearoyl])YLEGEAA[αMeK]E[αMeF]IA[αMeF]VVEGG-NH2 [SEQ ID NO 64] . Reported INS1e assay EC50 GLP-1 R n2: 12.1

The reported measurements were obtained from patent US20200079833A1.
